assay-target: human HSD17β13 (stable HEK293T cell line overexpressing human HSD17β13) (Homo sapiens, UniProt Q7Z5P4)
test-summary: HSD17β13 inhibitor cell-based screening assay (conversion of estradiol-d2 to estrone-d2 by RF-MS)
test-context: conversion of estradiol-d2 to estrone-d2 after 24 hours
measured-quantity: IC50

item_smiles=O=c1c2c(nc(-c3cc(F)c(F)cc3C3CC3)n1Cc1cc(C(F)(F)F)no1)sc1c(O)c(Cl)ccc12 measured_quantity=IC50 result="< 100 nM"
item_smiles=Cn1cc2cc(C3CC3)c(-c3nc4sc5c(O)c(Cl)ccc5c4c(=O)n3Cc3cnco3)cc2n1 measured_quantity=IC50 result="< 100 nM"
item_smiles=COc1ccc(-c2nc3sc4c(C=O)cccc4c3c(=O)n2Cc2cnco2)c(C2CC2)c1 measured_quantity=IC50 result="1000 to 100000 nM"
item_smiles=O=c1c2c(nc(-c3ccc4cc[nH]c4c3C3CC3)n1Cc1cnco1)sc1c(O)c(Cl)ccc12 measured_quantity=IC50 result="< 100 nM"

----------
assay-target: Recombinant human 17β-HSD13 (Homo sapiens, UniProt Q7Z5P4)
Sequence (Q7Z5P4 20-300): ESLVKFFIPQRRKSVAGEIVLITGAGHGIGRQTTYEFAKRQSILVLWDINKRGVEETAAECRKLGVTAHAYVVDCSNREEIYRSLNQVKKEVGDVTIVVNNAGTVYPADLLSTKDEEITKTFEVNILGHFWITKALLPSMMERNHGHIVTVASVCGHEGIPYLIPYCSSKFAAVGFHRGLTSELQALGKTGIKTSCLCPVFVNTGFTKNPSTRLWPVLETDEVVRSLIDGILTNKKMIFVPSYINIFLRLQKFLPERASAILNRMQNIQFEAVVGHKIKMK
test-summary: 17β-HSD13 rapid-fire mass spectrometry assay (RF/MS assay)
test-context: inhibition of 17β-HSD13, RF/MS assay; HSD17B13 80 nM, LTB4 10 μM, NAD+ 0.5 mM, RT 3 h
pIC50: −log10 of the molar value.
measured-quantity: pIC50

molecule="O=c1c2c(nc(-c3c(F)cc(F)cc3C3CC3)n1Cc1cnco1)sc1c(O)c(Cl)ccc12 [Example 144]" measured_quantity=pIC50 result="> 7.00"
molecule="C=Cc1cccc2c1sc1nc(-c3ccc(OC)cc3C3CC3)n(Cc3cnco3)c(=O)c12 [Example 14]" measured_quantity=pIC50 result="< 5.00"
molecule="COc1ccc(-c2nc3sc4c(ccc5[nH]c(=O)[nH]c54)c3c(=O)n2Cc2cnco2)c(C2CC2)c1 [Example 30]" measured_quantity=pIC50 result="< 5.00"
molecule="CCc1ncc(Cn2c(-c3ccc(OC)cc3C3CC3)nc3sc4c(O)c(Cl)ccc4c3c2=O)s1 [Example 41]" measured_quantity=pIC50 result="> 7.00"
molecule="COc1ccc(-c2nc3sc4c(-c5ncco5)cccc4c3c(=O)n2Cc2cnco2)c(C2CC2)c1 [Example 9]" measured_quantity=pIC50 result="< 5.00"
molecule="O=c1c2c(nc(-c3ccc(C(F)F)cc3C3CC3)n1Cc1cc(C(F)(F)F)no1)sc1c(O)c(Cl)ccc12 [Example 171]" measured_quantity=pIC50 result="> 7.00"
molecule="COc1ccc(-c2nc3sc4c(C(N)=O)cccc4c3c(=O)n2Cc2cnco2)c(C2CC2)c1 [Example 3]" measured_quantity=pIC50 result="5.00 to 6.00"
molecule="O=c1c2c(nc(-c3cc(F)c(C(F)F)cc3C3CC3)n1Cc1cc(C(F)(F)F)no1)sc1c(O)c(Cl)ccc12 [Example 175]" measured_quantity=pIC50 result="> 7.00"
molecule="COc1cc(C2CC2)c(-c2nc3sc4c(O)c(Cl)ccc4c3c(=O)n2Cc2cnco2)cc1Cl [Example 105]" measured_quantity=pIC50 result="> 7.00"
molecule="O=c1c2c(nc(-c3ccc(F)cc3C3CC3)n1Cc1cnc(C3CC3)o1)sc1c(O)c(Cl)ccc12 [Example 50]" measured_quantity=pIC50 result="> 7.00"
molecule="C=CCc1ccc2c(sc3nc(-c4ccc(OC)cc4C4CC4)n(Cc4cnco4)c(=O)c32)c1O [Example 21]" measured_quantity=pIC50 result="6.00 to 7.00"
molecule="O=c1c2c(nc(-c3ccc(F)cc3C3CC3)n1Cc1cnco1)sc1c(O)c(Cl)ccc12 [Example 42]" measured_quantity=pIC50 result="> 7.00"

Just for reference, patent US20250154163A1 is where these values come from.
